# Test system: Candida albicans
# Procedure Details: Microbicidal activity against Candida albicans ATCC 10231 after 7 days by microtiter plate method
# Assay type: functional
# Applied Conditions: ATCC 10231, 168 h
Label satisfied when MLC >= 40 µM; otherwise not satisfied.

[[record]]
smiles_record = "C=CC(=O)OCC[N+](C)(C)CCCCCCCCCCCCCC.[Br-]"
assigned_label = "not satisfied"

[[record]]
smiles_record = "C=CC(=O)OCC[N+](C)(C)CCCCCCCCCC.[Br-]"
assigned_label = "satisfied"

[[record]]
smiles_record = "C=CC(=O)OCCCCCCCCCCC[N+](C)(C)CCCCCCCCCC.[Br-]"
assigned_label = "not satisfied"

[[record]]
smiles_record = "C=CC(=O)OCC[N+](C)(C)CCCCCCCCCCCC.[Br-]"
assigned_label = "satisfied"

[[record]]
smiles_record = "C=CC(=O)OCCCCCCCCCCC[N+](C)(C)CCCCCCCCCCCCCC.[Br-]"
assigned_label = "not satisfied"

[[record]]
smiles_record = "C=CC(=O)OCCCCCCCCCCC[N+](C)(C)CCCCCCCCCCCC.[Br-]"
assigned_label = "not satisfied"

[[record]]
smiles_record = "C=CC(=O)OCC[N+](C)(C)CCCCCCCCCCCCCCCC.[Br-]"
assigned_label = "not satisfied"

[[record]]
smiles_record = "C=CC(=O)OCC[N+](C)(C)Cc1ccccc1.[Br-]"
assigned_label = "satisfied"

[[record]]
smiles_record = "C=CC(=O)OCCCCCCCCCCC[N+](C)(C)Cc1ccccc1.[Br-]"
assigned_label = "satisfied"


###

CMC values, listed per item
# Procedure Details: Critical micelle concentration by conductimetry
# Format: physicochemical
Metric: CMC (mM)

[[record]]
smiles_record = "C=CC(=O)OCC[N+](C)(C)CCCCCCCCCCCCCC.[Br-]"
observed_measurement = 2.99

[[record]]
smiles_record = "C=CC(=O)OCC[N+](C)(C)CCCCCCCCCCCC.[Br-]"
observed_measurement = 6.45

[[record]]
smiles_record = "C=CC(=O)OCCCCCCCCCCC[N+](C)(C)CCCCCCCCCC.[Br-]"
observed_measurement = 2.79

[[record]]
smiles_record = "C=CC(=O)OCC[N+](C)(C)CCCCCCCCCCCCCCCC.[Br-]"
observed_measurement = 1.95


###

# Test system: Candida albicans
# Procedure Details: Microbiostatic activity against Candida albicans ATCC 10231 after 72 hrs by turbidimetric method
# Assay type: functional
# Applied Conditions: ATCC 10231, 72 h
Metric: log10(MIC) (log10 of the value in µM)

[[record]]
smiles_record = "C=CC(=O)OCCCCCCCCCCC[N+](C)(C)CCCCCCCCCCCCCCCC.[Br-]"
observed_measurement = 1.43

[[record]]
smiles_record = "C=CC(=O)OCC[N+](C)(C)CCCCCCCCCC.[Br-]"
observed_measurement = 2.44

[[record]]
smiles_record = "C=CC(=O)OCCCCCCCCCCC[N+](C)(C)Cc1ccccc1.[Br-]"
observed_measurement = 2.19

[[record]]
smiles_record = "C=CC(=O)OCC[N+](C)(C)CCCCCCCCCCCCCC.[Br-]"
observed_measurement = 1.26

[[record]]
smiles_record = "C=CC(=O)OCCCCCCCCCCC[N+](C)(C)CCCCCCCCCC.[Br-]"
observed_measurement = 1.28

[[record]]
smiles_record = "C=CC(=O)OCC[N+](C)(C)CCCCCCCCCCCC.[Br-]"
observed_measurement = 1.80

[[record]]
smiles_record = "C=CC(=O)OCCCCCCCCCCC[N+](C)(C)CCCCCCCCCCCC.[Br-]"
observed_measurement = 1.17

[[record]]
smiles_record = "C=CC(=O)OCC[N+](C)(C)CCCCCCCCCCCCCCCC.[Br-]"
observed_measurement = 1.38

[[record]]
smiles_record = "C=CC(=O)OCCCCCCCCCCC[N+](C)(C)CCCCCCCCCCCCCC.[Br-]"
observed_measurement = 1.23


###

# System: Pseudomonas aeruginosa
# Procedure Details: Microbiostatic activity against Pseudomonas aeruginosa ATCC 9027 after 24 hrs by turbidimetric method
# Type: functional
# Applied Conditions: ATCC 9027, 24 h
Metric: MIC (µM)

[[record]]
smiles_record = "C=CC(=O)OCC[N+](C)(C)CCCCCCCCCCCC.[Br-]"
metric = "MIC"
measure_unit = "µM"
relation_sign = "="
observed_measurement = 71.1

[[record]]
smiles_record = "C=CC(=O)OCC[N+](C)(C)CCCCCCCCCCCCCC.[Br-]"
metric = "MIC"
measure_unit = "µM"
relation_sign = "="
observed_measurement = 112

[[record]]
smiles_record = "C=CC(=O)OCCCCCCCCCCC[N+](C)(C)CCCCCCCCCC.[Br-]"
metric = "MIC"
measure_unit = "µM"
relation_sign = "="
observed_measurement = 79.9

[[record]]
smiles_record = "C=CC(=O)OCCCCCCCCCCC[N+](C)(C)Cc1ccccc1.[Br-]"
metric = "MIC"
measure_unit = "µM"
relation_sign = "="
observed_measurement = 154

[[record]]
smiles_record = "C=CC(=O)OCCCCCCCCCCC[N+](C)(C)CCCCCCCCCCCCCCCC.[Br-]"
metric = "MIC"
measure_unit = "µM"
relation_sign = "="
observed_measurement = 132

[[record]]
smiles_record = "C=CC(=O)OCC[N+](C)(C)Cc1ccccc1.[Br-]"
metric = "MIC"
measure_unit = "µM"
relation_sign = ">"
observed_measurement = 2000

[[record]]
smiles_record = "C=CC(=O)OCC[N+](C)(C)CCCCCCCCCC.[Br-]"
metric = "MIC"
measure_unit = "µM"
relation_sign = "="
observed_measurement = 356

[[record]]
smiles_record = "C=CC(=O)OCCCCCCCCCCC[N+](C)(C)CCCCCCCCCCCC.[Br-]"
metric = "MIC"
measure_unit = "µM"
relation_sign = "="
observed_measurement = 58.4

[[record]]
smiles_record = "C=CC(=O)OCC[N+](C)(C)CCCCCCCCCCCCCCCC.[Br-]"
metric = "MIC"
measure_unit = "µM"
relation_sign = "="
observed_measurement = 237

[[record]]
smiles_record = "C=CC(=O)OCCCCCCCCCCC[N+](C)(C)CCCCCCCCCCCCCC.[Br-]"
metric = "MIC"
measure_unit = "µM"
relation_sign = "="
observed_measurement = 44.8


###

# System: Staphylococcus aureus
# Procedure Details: Microbiostatic activity against Staphylococcus aureus ATCC 6538 after 24 hrs by turbidimetric method
# Assay type: functional
# Applied Conditions: ATCC 6538, 24 h
Range-based classes on measured MIC: b0 = under 70 µM, b1 = from 70 µM up to 200 µM, b2 = 200 µM and over

[[record]]
smiles_record = "C=CC(=O)OCC[N+](C)(C)CCCCCCCCCCCCCC.[Br-]"
system_tested = "Staphylococcus aureus"
assigned_label = "b1"

[[record]]
smiles_record = "C=CC(=O)OCCCCCCCCCCC[N+](C)(C)Cc1ccccc1.[Br-]"
system_tested = "Staphylococcus aureus"
assigned_label = "b2"

[[record]]
smiles_record = "C=CC(=O)OCCCCCCCCCCC[N+](C)(C)CCCCCCCCCCCC.[Br-]"
system_tested = "Staphylococcus aureus"
assigned_label = "b0"

[[record]]
smiles_record = "C=CC(=O)OCC[N+](C)(C)CCCCCCCCCC.[Br-]"
system_tested = "Staphylococcus aureus"
assigned_label = "b2"

[[record]]
smiles_record = "C=CC(=O)OCCCCCCCCCCC[N+](C)(C)CCCCCCCCCC.[Br-]"
system_tested = "Staphylococcus aureus"
assigned_label = "b0"

[[record]]
smiles_record = "C=CC(=O)OCC[N+](C)(C)CCCCCCCCCCCCCCCC.[Br-]"
system_tested = "Staphylococcus aureus"
assigned_label = "b2"

[[record]]
smiles_record = "C=CC(=O)OCCCCCCCCCCC[N+](C)(C)CCCCCCCCCCCCCCCC.[Br-]"
system_tested = "Staphylococcus aureus"
assigned_label = "b2"

[[record]]
smiles_record = "C=CC(=O)OCCCCCCCCCCC[N+](C)(C)CCCCCCCCCCCCCC.[Br-]"
system_tested = "Staphylococcus aureus"
assigned_label = "b1"

[[record]]
smiles_record = "C=CC(=O)OCC[N+](C)(C)Cc1ccccc1.[Br-]"
system_tested = "Staphylococcus aureus"
assigned_label = "b2"


###

# Procedure Details: Critical micelle concentration by conductimetry
# Type: physicochemical
Metric: CMC

[[record]]
smiles_record = "C=CC(=O)OCCCCCCCCCCC[N+](C)(C)CCCCCCCCCCCC.[Br-]"
observed_measurement = "9.66 ×10⁻⁴ mol/L"

[[record]]
smiles_record = "C=CC(=O)OCC[N+](C)(C)Cc1ccccc1.[Br-]"
observed_measurement = "4.6 ×10⁻² mol/L"

[[record]]
smiles_record = "C=CC(=O)OCCCCCCCCCCC[N+](C)(C)Cc1ccccc1.[Br-]"
observed_measurement = "3.34 ×10⁻² mol/L"

[[record]]
smiles_record = "C=CC(=O)OCCCCCCCCCCC[N+](C)(C)CCCCCCCCCCCCCCCC.[Br-]"
observed_measurement = "1.66 ×10⁻⁴ mol/L"

[[record]]
smiles_record = "C=CC(=O)OCCCCCCCCCCC[N+](C)(C)CCCCCCCCCCCCCC.[Br-]"
observed_measurement = "4.68 ×10⁻⁴ mol/L"

[[record]]
smiles_record = "C=CC(=O)OCC[N+](C)(C)CCCCCCCCCC.[Br-]"
observed_measurement = "1.16 ×10⁻² mol/L"

